- test.system: 5-hydroxytryptamine receptor 2B (Homo sapiens, UniProt P41595)
- Sequence (P41595 whole entry): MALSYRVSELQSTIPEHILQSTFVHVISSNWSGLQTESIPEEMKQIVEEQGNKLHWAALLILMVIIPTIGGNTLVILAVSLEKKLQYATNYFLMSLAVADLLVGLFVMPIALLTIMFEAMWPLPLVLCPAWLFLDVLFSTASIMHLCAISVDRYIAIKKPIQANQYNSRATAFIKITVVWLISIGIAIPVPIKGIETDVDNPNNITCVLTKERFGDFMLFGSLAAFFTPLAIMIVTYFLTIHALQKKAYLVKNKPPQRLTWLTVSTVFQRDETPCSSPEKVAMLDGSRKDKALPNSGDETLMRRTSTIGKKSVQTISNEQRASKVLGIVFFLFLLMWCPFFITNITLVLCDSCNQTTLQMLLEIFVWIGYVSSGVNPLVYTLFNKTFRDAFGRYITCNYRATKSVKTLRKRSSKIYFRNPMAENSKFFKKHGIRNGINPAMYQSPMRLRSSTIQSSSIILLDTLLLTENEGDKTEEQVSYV
- test.details: Agonist activity at human 5-HT2B receptor expressed in human Flp-In-293 cells assessed as induction of calcium flux incubated for 1 hr by Fluo-4 direct dye based FLIPR assay
readout.type: EC50 (nM)
Field: numeric (nM). Do not append units.

EC50 recorded for this compound, NC[C@H]1C[C@@H]1c1c(OCC2CC2)ccc2occc12 , is 339

These data points were gathered from BindingDB's records for doi:10.1021/acs.jmedchem.6b01194.
